- subject_of_test: UniProtKB P00533
- Sequence (P00533 25-1210): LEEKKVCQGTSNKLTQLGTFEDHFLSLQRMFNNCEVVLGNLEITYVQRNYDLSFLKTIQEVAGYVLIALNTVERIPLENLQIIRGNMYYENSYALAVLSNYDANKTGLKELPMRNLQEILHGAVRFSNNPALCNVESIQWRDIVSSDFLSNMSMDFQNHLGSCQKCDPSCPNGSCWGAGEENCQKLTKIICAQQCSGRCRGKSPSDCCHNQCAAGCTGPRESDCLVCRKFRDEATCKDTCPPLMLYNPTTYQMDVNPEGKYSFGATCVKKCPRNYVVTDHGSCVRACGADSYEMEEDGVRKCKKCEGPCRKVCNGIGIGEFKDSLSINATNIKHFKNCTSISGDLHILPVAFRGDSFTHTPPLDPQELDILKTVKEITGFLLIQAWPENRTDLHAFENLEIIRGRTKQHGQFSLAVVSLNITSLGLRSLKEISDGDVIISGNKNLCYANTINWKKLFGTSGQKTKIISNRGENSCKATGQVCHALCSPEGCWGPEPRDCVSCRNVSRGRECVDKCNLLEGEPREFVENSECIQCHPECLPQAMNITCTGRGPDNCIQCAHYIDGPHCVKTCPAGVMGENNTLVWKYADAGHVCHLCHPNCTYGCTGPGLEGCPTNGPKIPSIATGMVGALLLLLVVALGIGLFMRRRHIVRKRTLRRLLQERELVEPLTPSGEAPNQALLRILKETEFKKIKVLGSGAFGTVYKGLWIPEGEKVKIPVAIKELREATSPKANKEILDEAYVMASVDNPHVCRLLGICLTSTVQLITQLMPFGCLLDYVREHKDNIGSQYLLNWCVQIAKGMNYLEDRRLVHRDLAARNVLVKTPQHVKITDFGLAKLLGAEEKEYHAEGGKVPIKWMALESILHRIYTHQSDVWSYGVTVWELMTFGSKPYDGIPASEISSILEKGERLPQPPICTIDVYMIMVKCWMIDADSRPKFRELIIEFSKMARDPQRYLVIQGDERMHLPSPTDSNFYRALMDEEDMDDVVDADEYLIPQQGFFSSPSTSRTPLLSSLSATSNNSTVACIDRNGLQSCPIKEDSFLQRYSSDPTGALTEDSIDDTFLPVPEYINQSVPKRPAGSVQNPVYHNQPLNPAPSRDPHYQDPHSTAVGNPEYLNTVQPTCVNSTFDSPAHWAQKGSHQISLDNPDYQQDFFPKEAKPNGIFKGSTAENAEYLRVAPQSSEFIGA
- assay: Biochemical EGFR kinase assay (Lance Ultra TR-FRET), wildtype
- experimental_context: IC50 WT (nM) 100 μM ATP, 100 μM ATP
measurement_type: IC50 (nM)

>>> val("CN(C)Cc1cnc(-c2cnc(Nc3ccnc(-c4cnn(S(=O)(=O)C5CC5)c4)n3)cc2N[C@H]2CC[C@@](C)(O)CC2)cn1")
1140
>>> val("CN1CCN(c2ccc(-c3cnc(Nc4ccnc(-c5cnn(S(=O)(=O)C6CC6)c5)n4)cc3N[C@H]3CC[C@@H](C(C)(C)O)CC3)nc2)CC1")
181
>>> val("C[C@]1(O)CC[C@@H](Nc2cc(Nc3ccnc(-c4cnn(S(=O)(=O)C5CC5)c4)n3)ncc2-c2cccc(CO)n2)CC1")
370

All values here come from patent US12258328B2.
